Data origin: paper PMC10385162

Target: SARS-CoV-2 nsp14/nsp10 ExoN (Severe acute respiratory syndrome coronavirus 2)
Test: SARS-CoV-2 nsp14 exonuclease (ExoN) activity assay, HPLC, RNA22 substrate
Format: biochemical
Conditions: RNA22 substrate, HPLC
pIC50: −log10 of the molar value.
Measure: pIC50

                                smiles_repr  test_result
0  O=C(N/N=C/c1cc(O)c(O)c([N+](=O)[O-])c1)c1cc2ccccc2cc1O         5.66

----------
Biological target: HIV-1 reverse transcriptase (RT)-associated RNase H (Human immunodeficiency virus type 1 group M subtype B)
Test: HIV-1 RT-associated RNase H inhibition assay
Type: biochemical
Details: concentration required to reduce HIV-1 RT-associated RNase H activity by 50%; mean of three independent experiments ± SD; read-out: IC50 HIV-1 RNase H
Measure: log10 of IC50 (log10 of the value in µM)

>>> df
                                   compound  test_result
0    O=C(N/N=C/c1ccc(O)cc1O)c1cc2ccccc2cc1O         1.56
1  CN(C)c1ccc(/C=N/NC(=O)c2cc3ccccc3cc2O)cc1         1.44
2  O=C(N/N=C/c1ccc(O)c(O)c1O)c1cc2ccccc2cc1O        -0.03
3  O=C(N/N=C/c1ccc(O)c([N+](=O)[O-])c1)c1cc2ccccc2cc1O         1.84
4  O=C(N/N=C/c1ccc(O)c(O)c1)c1cc2ccccc2cc1O [Dynasore, reference compound]         0.49
5  COc1ccc(/C=N/NC(=O)c2cc3ccccc3cc2O)c(O)c1O         0.01
6    O=C(N/N=C/c1cc(O)ccc1O)c1cc2ccccc2cc1O         1.56
7  CCOC(=O)C(=O)CC(=O)/C=C/c1cccn1Cc1ccc(F)cc1 [RDS1643, reference compound]         1.03

----------
Biological target: HIV-1 reverse transcriptase (RT)-associated RNase H (Human immunodeficiency virus type 1 group M subtype B, UniProt P03366)
Assay: HIV-1 RT-associated RNase H inhibition assay
Assay type: biochemical
Conditions: IC50 HIV-1 RNase H, concentration required to reduce HIV-1 RT-associated RNase H activity by 50%; mean of three independent experiments ± SD
Entries and their IC50 values follow.
Measure: IC50

                                   compound  test_result
0  O=C(N/N=C/c1cc(O)c(O)c([N+](=O)[O-])c1)c1cccc(F)c1 [2b]      15.2 µM
1  O=C(N/N=C/c1cc(O)c(O)c([N+](=O)[O-])c1)c1cc2ccccc2cc1O [1c]      0.57 µM
2  O=C(N/N=C/c1cc(O)c(O)c([N+](=O)[O-])c1)c1ccccc1O [2a]        14 µM
3  O=C(N/N=C/c1cc(O)c(O)c([N+](=O)[O-])c1)c1cccnc1 [2c]      24.7 µM

----------
Entries and their melting point values follow.
Measure: melting point

In [3]: df
Out[3]:
                                   molecule           test_result
0  CN1CCN(c2ccc(/C=N/NC(=O)c3cc4ccccc4cc3O)cc2)CC1 [1l]         256 to 257 °C
1  O=C(N/N=C/c1cc(O)c(O)c([N+](=O)[O-])c1)c1cccc(F)c1 [2b]  251 to 252 °C (dec.)
2  O=C(N/N=C/c1cc(O)c(O)c([N+](=O)[O-])c1)c1ccccc1O [2a]         275 °C (dec.)
3  O=C(N/N=C/c1cc(O)c(O)c([N+](=O)[O-])c1)c1cccnc1 [2c]  250 to 251 °C (dec.)

----------
Molecular target: HIV-1 reverse transcriptase (RT)-associated RNase H (Human immunodeficiency virus type 1 group M subtype B)
Test: HIV-1 RT-associated RNase H inhibition assay
Type: biochemical
Conditions: concentration required to reduce HIV-1 RT-associated RNase H activity by 50%; mean of three independent experiments ± SD; read-out: IC50 HIV-1 RNase H
Measure: IC50

>>> print(df.to_string())
                                smiles_repr  test_result
0  CN1CCN(c2ccc(/C=N/NC(=O)c3cc4ccccc4cc3O)cc2)CC1     > 100 µM
1  CC(=O)Nc1ccc(/C=N/NC(=O)c2cc3ccccc3cc2O)cc1     > 100 µM
2   COc1ccc(/C=N/NC(=O)c2cc3ccccc3cc2O)cc1O     > 100 µM
